TEST SYSTEM: human CXCR2 (Homo sapiens (Human))
EXPERIMENT DESCRIPTION: Determination of CXCR2 inhibition: Calcium Fluorescence Assay (FLIPR)
CONDITION SET: chemokine IL-8; CHO-K1 cells stably transfected with human CXCR2 and Gα16
READOUT LABEL: IC50

Example entries and their recorded answers appear below.
• CC(CCc1ccccc1)Oc1c(C(=O)NC2(C(=O)O)CCCC2)ccc2ccccc12 (stereo not drawn) = 0.92 µM
• CC(C)(NC(=O)c1cc(F)c2ccccc2c1OCCCc1ccccc1)C(=O)O = < 10 µM
• CC(C)(NC(=O)c1ccc2ccccc2c1C#CCOc1ccccc1)C(=O)O = < 10 µM
• O=C(NC1(C(=O)O)CCC1)c1ccc2ccccc2c1OCCCc1ccccc1 = < 10 µM
• C[C@@H](NC(=O)c1ccc2ccccc2c1OCCc1ccc(F)cc1)C(=O)O = < 10 µM
• CC(C)(NC(=O)c1cc(F)c2ccccc2c1OCCOc1ccccc1)C(=O)O = < 10 µM

For each of the compounds below, state IC50.
1. CC(C)(NC(=O)c1ccc2ccccc2c1OCCc1ccccc1)C(=O)O
2. CC(C)(NC(=O)c1ccc2ccccc2c1C#CCCCc1ccccc1)C(=O)O
3. CCCCC(CC)(NC(=O)c1ccc2ccccc2c1OCCCc1ccccc1)C(=O)O (stereo not drawn)

## Output
1. < 10 µM
2. 1.67 µM
3. < 10 µM

---

TEST SYSTEM: human CXCR2 (Homo sapiens (Human), UniProt P25025)
Sequence (P25025 whole entry): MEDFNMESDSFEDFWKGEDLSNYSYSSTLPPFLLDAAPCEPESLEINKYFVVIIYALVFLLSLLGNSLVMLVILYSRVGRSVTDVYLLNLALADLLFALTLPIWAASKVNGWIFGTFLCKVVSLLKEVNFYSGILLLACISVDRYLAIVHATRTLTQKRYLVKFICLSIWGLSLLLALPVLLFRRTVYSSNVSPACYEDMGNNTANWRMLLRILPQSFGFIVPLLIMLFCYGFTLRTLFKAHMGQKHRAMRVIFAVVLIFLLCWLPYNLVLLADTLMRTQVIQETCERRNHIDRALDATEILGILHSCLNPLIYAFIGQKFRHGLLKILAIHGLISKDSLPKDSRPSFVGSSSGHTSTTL
EXPERIMENT DESCRIPTION: Determination of CXCR2 inhibition: Calcium Fluorescence Assay (FLIPR)
CONDITION SET: chemokine IL-8; CHO-K1 cells stably transfected with human CXCR2 and Gα16
Exercise: state measured IC50 for each of the compounds provided.

- CC(C)(NC(=O)c1cc(F)c2ccccc2c1OCCc1ccccc1)C(=O)O: < 10 µM

For each of the compounds below, state IC50.
1. O=C(NC1(C(=O)O)CCC1)c1ccc2ccccc2c1OCCC1CCCCC1
2. CC(C)(NC(=O)c1sc2ccccc2c1OCCOc1ccccc1)C(=O)O
3. CC(C)(NC(=O)c1ccc2ccccc2c1OCCOc1ccc(F)c(Cl)c1)C(=O)O
4. O=C(NC1(C(=O)O)CCC1)c1ccc2ccccc2c1OCCOc1ccc(F)cc1
5. CCCCC(CC)(NC(=O)c1ccc2ccccc2c1OCCOc1ccccc1)C(=O)O (centres unmarked)
6. O=C(NC1(C(=O)O)CCC1)c1ccc2ccccc2c1OCCOc1ccccc1

## Output
["< 10 µM", "1.76 µM", "1.25 µM", "3.23 µM", "< 10 µM", "< 10 µM"]

---

TEST SYSTEM: human CXCR2 (Homo sapiens (Human), UniProt P25025)
EXPERIMENT DESCRIPTION: Determination of CXCR2 inhibition: Calcium Fluorescence Assay (FLIPR)
CONDITION SET: chemokine IL-8; CHO-K1 cells stably transfected with human CXCR2 and Gα16
Exercise: state measured IC50 for each of the molecules provided.

Example entries and their recorded answers appear below.
- CC(C)CC(C)(NC(=O)c1ccc2ccccc2c1OCCOc1ccccc1)C(=O)O (stereo not shown): 2.56 µM
- CCCCC(CC)(NC(=O)c1ccc2ccccc2c1OCCCC1CCCCC1)C(=O)O (stereo not shown): < 10 µM

For each of the molecules below, state IC50.
1. CC(CCc1ccccc1)Oc1c(C(=O)NC(C)(C)C(=O)O)ccc2ccccc12 (stereo not shown)
2. CC(C)(NC(=O)c1ccc2ccccc2c1OCCCc1ccc(Cl)cc1)C(=O)O

## Output
1: < 10 µM; 2: < 10 µM
